# cytotoxicity at 10 µM values compiled below
System: CT26.CL25 colon cancer tumor endothelial cells
Experiment: Colon CT26 ex vivo model of tumor angiogenesis
Type: cell-based, mouse
Details: Mus musculus, Endothelial cell, 48 h, read-out: Cell death
Give the value in % but do not write % after it.

See these solved cases before continuing.
{"molecule": "CCCCOc1ccc(S(=O)(=O)c2cnc3ccc(OC(F)(F)F)cc3c2-n2cncn2)cc1 [Compound 93]", "cytotoxicity at 10 µM (%)": 100}
{"molecule": "CCc1ccc(S(=O)(=O)c2cnc3ccc(OC)cc3c2-n2cncn2)cc1 [Compound 79]", "cytotoxicity at 10 µM (%)": 100}
{"molecule": "COc1ccc(S(=O)(=O)c2cnc3cc(OC)c(OC)cc3c2-n2cncn2)cc1OC [Compound 96]", "cytotoxicity at 10 µM (%)": 0}

Consider the molecule shown here: CCCCCCCOc1ccc(S(=O)(=O)c2cnc3ccc([S+](C)[O-])cc3c2N2CCC(N3CCCC(O)C3)CC2)cc1 (centres unmarked) [Compound 254] What is its recorded cytotoxicity at 10 µM?
40

Consider the molecule shown here: CCCCOc1ccc(S(=O)(=O)c2cnc3ccc([S+](C)[O-])cc3c2N2CCC(N3CCC(O)(c4ccccc4)CC3)CC2)cc1 (centres unmarked) [Compound 238] What is its recorded cytotoxicity at 10 µM?
10

Just for reference, patent US20250230226A1 is where these values come from.
